- Experimental system: T1, Activin B (UniProt P09529 293-407)
- T1 sequence (looked up): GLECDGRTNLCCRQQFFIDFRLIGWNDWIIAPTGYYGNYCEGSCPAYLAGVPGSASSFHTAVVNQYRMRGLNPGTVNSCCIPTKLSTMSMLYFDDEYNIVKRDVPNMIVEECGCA
- Method summary: SPR (Biacore 8K), Fc protein captured on anti-human IgG, ligand injected
pKd: −log10 of the molar value.
Below: a set of entries, each annotated with reported pKd.

Binder | pKd
ActRIIA-B4 (SEQ ID NO: 98) chimera-Fc protein (Fc fusion, Tested as chimera-Fc protein; not shown: linker (if any) and Fc domain) GAILGRSETQECLFFNANWEKDRTNQTGVEPCYGDKDKRRHCFATWKNISGTIELVKKGCWLDDINCYDRTDCVEKKDSPEVYFCCCEGNMCNEKFSYFPEMEVTQPTS | > 12.00
ActRIIA-B2B4 (SEQ ID NO: 103) chimera-Fc protein (Fc fusion, Tested as chimera-Fc protein; not shown: linker (if any) and Fc domain) GAILGRSETQECLEFNANWEKDRTNQSGLERCYGDKDKRRHCFATWKNISGTIELVKKGCWLDDINCYDRTDCVEKKDSPEVYFCCCEGNMCNEKFSYFPEMEVTQPTS | > 12.00
ActRIIA-A1 (SEQ ID NO: 104) chimera-Fc protein (Fc fusion, Tested as chimera-Fc protein; not shown: linker (if any) and Fc domain) GRGEAETRECLFFNANWEKDRTNQTGVEPCYGDKDKRRHCFATWKNISGSIEIVKQGCWLDDINCYDRTDCVEKKDSPEVYFCCCEGNMCNEKFSYFPEMEVTQPTS | 10.70
ActRIIA-A8 (SEQ ID NO: 110) chimera-Fc protein (Fc fusion, Tested as chimera-Fc protein; not shown: linker (if any) and Fc domain) GAILGRSETQECLFFNANWEKDRTNQTGVEPCYGDKDKRRHCFATWKNISGSIEIVKQGCWLDDINCYDRTDCVEKKDSPEVYFCCCEGNMCNEKFSYFPEAGGPEVTYEPPPTAPT | > 12.00
